So I've got a bunch of compounds here, and I need their IC50 values.
Tested On: Human plasma kallikrein (Homo sapiens (Human), UniProt P03952)
Sequence (P03952 391-638): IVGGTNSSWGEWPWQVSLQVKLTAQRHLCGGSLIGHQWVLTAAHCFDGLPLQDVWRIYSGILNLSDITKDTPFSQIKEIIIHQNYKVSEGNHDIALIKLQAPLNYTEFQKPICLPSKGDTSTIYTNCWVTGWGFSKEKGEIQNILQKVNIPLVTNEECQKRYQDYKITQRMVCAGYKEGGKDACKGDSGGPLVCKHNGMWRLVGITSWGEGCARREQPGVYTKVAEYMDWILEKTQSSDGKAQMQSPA
Sequence (P03952 20-390 partner): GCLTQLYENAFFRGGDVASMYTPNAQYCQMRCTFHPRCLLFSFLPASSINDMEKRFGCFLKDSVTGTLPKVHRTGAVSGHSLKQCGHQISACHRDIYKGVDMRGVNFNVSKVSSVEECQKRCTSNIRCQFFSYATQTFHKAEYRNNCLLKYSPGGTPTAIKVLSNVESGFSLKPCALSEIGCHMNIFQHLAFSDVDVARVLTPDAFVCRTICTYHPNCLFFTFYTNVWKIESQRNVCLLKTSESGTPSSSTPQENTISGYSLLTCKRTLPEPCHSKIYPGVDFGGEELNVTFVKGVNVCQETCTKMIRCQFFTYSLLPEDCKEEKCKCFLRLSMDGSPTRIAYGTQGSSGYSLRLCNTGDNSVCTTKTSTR
Test Details: Determination of the IC50 for plasma kallikrein (fluorogenic substrate H-DPro-Phe-Arg-AFC)
Stated Conditions: class symbols A-D, read-out: IC50 (human PKal)
Procedure: The ability of the compounds of formula (I) to inhibit plasma kallikrein may be determined using the following biological assay: Determination of the IC50 for Plasma Kallikrein Plasma kallikrein inhibitory activity in vitro was determined using standard published methods (see e.g. Johansen et al., Int. J. Tiss. Reac. 1986, 8, 185; Shori et al., Biochem. Pharmacol., 1992, 43, 1209; Sturzebecher et al., Biol. Chem. Hoppe-Seyler, 1992, 373, 1025). […]

Solved entries (count: 5):
[ask] Entry CCN1Cc2ccc(Cn3cc(C(=O)NCc4c(-n5cc(C)nn5)ccc(OC)c4F)c(COC)n3)cc2C1 [Example 56] : reported IC50 = ?
[reply] < 10 nM

[ask] Entry COc1ccc(-n2cc(C)nn2)c(CNC(=O)c2ccc(=O)n(Cc3ccc4c(c3)CN(C)CC4)c2)c1F [Example 160] : reported IC50 = ?
[reply] < 10 nM

[ask] Entry COCc1nn(Cc2ccc3c(c2)C(=O)N(C)CC3)cc1C(=O)NCc1c(-n2cc(C)nn2)ccc(OC)c1F [Example 73] : reported IC50 = ?
[reply] 30 to 100 nM

[ask] Entry COCc1nn(Cc2ccc3c(c2)CN(C)C3)cc1C(=O)NCc1c(-n2cnc(C(F)(F)F)n2)ccc(OC)c1F [Example 58] : reported IC50 = ?
[reply] < 10 nM

[ask] Entry COCc1nn(Cc2ccc3c(c2)CCN(C(C)C)CC3)cc1C(=O)NCc1c(-n2cc(C)nn2)ccc(OC)c1F [Example 122] : reported IC50 = ?
[reply] < 10 nM

The following compounds each have a reported value; give each one's IC50.
1. COCc1nn(Cc2cc(F)c3c(c2)CCN(C)C3)cc1C(=O)NCc1c(-n2cc(C)nn2)ccc(OC)c1F [Example 116]
2. CCN1CCc2ccc(Cn3cc(C(=O)NCc4c(-n5ccc(C#N)n5)ccc(OC)c4F)c(COC)n3)cc2C1 [Example 27]
3. COCc1nn(Cc2cnc(N3CCCC3)nc2)cc1C(=O)NCc1c(-n2cnnn2)ccc(OC)c1F [RC4, reference compound]
4. COCc1nn(Cc2cnc3c(c2)CCN(C(C)C)C3)cc1C(=O)NCc1c(-n2cc(C)nn2)ccc(OC)c1F [Example 117]
5. COCc1nn(Cc2cnc3c(c2)CCN(C)C3)cc1C(=O)NCc1c(-n2cc(C)nn2)ccc(OC)c1F [Example 102]
6. COCc1nn(Cc2ccc3c(c2)CN(C(C)C)CC3)cc1C(=O)NCc1c(-n2cnc(C(F)F)n2)ccc(OC)c1F [Example 23]
7. COc1ccc(-n2cc(C)nn2)c(CNC(=O)c2cn(Cc3ccc4c(n3)CN(C)CC4)nc2C(F)(F)F)c1F [Example 131]

[reply]
< 10 nM
< 10 nM
< 10 nM
10 to 30 nM
< 10 nM
< 10 nM
10 to 30 nM

The following compounds each have a reported value; give each one's IC50.
1. COCc1nn(Cc2ccc3c(c2)CN(C)C3)cc1C(=O)NCc1c(-n2cnc(C(F)F)n2)ccc(OC)c1F [Example 57]
2. COCc1nn(Cc2ccc3c(c2)CNCCO3)cc1C(=O)NCc1c(-n2cc(C)nn2)ccc(OC)c1F [Example 110]
3. COCc1nn(Cc2ccc3c(c2)CCN(C)C3)cc1C(=O)NCc1c(-n2cc(C)nn2)ccc(OC)c1F [Example 36]

[reply]
1. < 10 nM
2. 100 to 1000 nM
3. < 10 nM

----------
Tested On: Human plasma kallikrein (Homo sapiens (Human))
Test Details: Determination of the IC50 for plasma kallikrein (fluorogenic substrate H-DPro-Phe-Arg-AFC)
Stated Conditions: class symbols A-D, read-out: IC50 (human PKal)
pIC50: −log10 of the molar value.
So I've got a bunch of compounds here, and I need their pIC50 values.

[ask] Entry COCc1nn(Cc2ccc3c(c2)CN(C(C)C)CC3)cc1C(=O)NCc1c(-n2ccc(C#N)n2)ccc(OC)c1F [Example 24] : reported pIC50 = ?
[reply] > 8.00

[ask] Entry COCc1nn(Cc2ccc3c(c2)CCN(C)CC3)cc1C(=O)NCc1c(-n2cc(C)nn2)ccc(OC)c1F [Example 121] : reported pIC50 = ?
[reply] > 8.00

[ask] Entry COCc1nn(Cc2ccc3c(c2)CN(C)CC3)cc1C(=O)NCc1c(-n2ccc(C(F)(F)F)n2)ccc(OC)c1F [Example 8] : reported pIC50 = ?
[reply] 7.52 to 8.00

The following compounds each have a reported value; give each one's pIC50.
1. COc1ccc(-n2cnc(C(F)(F)F)n2)c(CNC(=O)c2cnn(Cc3ccc4c(c3)CN(C(C)C)CC4)c2)c1F [Example 32]
2. COCc1nn(Cc2ccc3c(c2)CN(C)CC3)cc1C(=O)NCc1c(-n2cnc(C(F)F)n2)ccc(OC)c1Cl [Example 156]

[reply]
1: > 8.00; 2: > 8.00

----------
So I've got a bunch of compounds here, and I need their pIC50 values.
Tested On: Human plasma kallikrein (Homo sapiens (Human), UniProt P03952)
Test Details: Determination of the IC50 for plasma kallikrein (fluorogenic substrate H-DPro-Phe-Arg-AFC)
Stated Conditions: class symbols A-D, read-out: IC50 (human PKal)
pIC50: −log10 of the molar value.

Solved entries (count: 5):
[ask] Entry COCc1nn(Cc2ccc3c(c2)CCN(C)C3)cc1C(=O)NCc1c(-n2cnc(C(F)(F)F)n2)ccc(OC)c1F : reported pIC50 = ?
[reply] > 8.00

[ask] Entry COCc1nc(C(=O)NCc2c(-n3cc(C)nn3)ccc(OC)c2F)cn1Cc1ccc2c(c1)CN(C(C)C)C2 : reported pIC50 = ?
[reply] 7.52 to 8.00

[ask] Entry COc1ccc(-n2cc(C)nn2)c(CNC(=O)c2cn(Cc3ccc4c(c3)CN(C(C)C)C4)c(C3CC3)n2)c1F : reported pIC50 = ?
[reply] 7.52 to 8.00

[ask] Entry COc1ccc(-n2cc(C)nn2)c(CNC(=O)c2cncc(Cc3ccc4c(c3)CN(C)CC4)c2)c1F : reported pIC50 = ?
[reply] > 8.00

[ask] Entry CCN1CCc2ccc(Cn3cc(C(=O)NCc4c(-n5cc(C)nn5)ccc(OC)c4F)c(COC)n3)cc2C1 : reported pIC50 = ?
[reply] > 8.00

The following compounds each have a reported value; give each one's pIC50.
1. COc1ccc(-n2cc(C)nn2)c(CNC(=O)c2cn(Cc3ccc4c(c3)CN(C)CC4)nc2C(F)F)c1F
2. COCc1nn(Cc2ccc3c(c2)CN(C(C)C)C3)cc1C(=O)NCc1c(-n2cnc(C(F)(F)F)n2)ccc(OC)c1F
3. COc1ccc(-n2cc(C)nn2)c(CNC(=O)c2cn(Cc3cc4n(n3)C3(CC3)CN(C)C4)nc2C(F)F)c1F
4. COCc1nn(Cc2ccc3c(c2)CN(C)CC3)cc1C(=O)NCc1c(-n2cnc(C(F)F)n2)ccc(OC)c1F
5. COCc1nn(Cc2ccc3c(c2F)CN(C)CC3)cc1C(=O)NCc1c(-n2cc(C)nn2)ccc(OC)c1F
6. CCN1CCc2cc(Cn3cc(C(=O)NCc4c(-n5cnc(C(F)F)n5)ccc(OC)c4F)c(COC)n3)ccc2C1
7. COCc1nn(Cc2ccc3c(c2)CCN(C)C3=O)cc1C(=O)NCc1c(-n2cc(C)nn2)ccc(OC)c1F

[reply]
1. > 8.00
2. > 8.00
3. > 8.00
4. > 8.00
5. > 8.00
6. > 8.00
7. 7.52 to 8.00

The following compounds each have a reported value; give each one's pIC50.
1. COCc1nn(Cc2ccc3c(c2)CNCC32CC2)cc1C(=O)NCc1c(-n2cc(C)nn2)ccc(OC)c1F
2. COCc1nn(Cc2ccc3c(c2)CCN(C(C)C)C3)cc1C(=O)NCc1c(-n2cnc(C(F)F)n2)ccc(OC)c1F

[reply]
1. > 8.00
2. > 8.00

----------
Tested On: Human plasma kallikrein (Homo sapiens (Human), UniProt P03952)
Test Details: Determination of the IC50 for plasma kallikrein (fluorogenic substrate H-DPro-Phe-Arg-AFC)
Stated Conditions: class symbols A-D, read-out: IC50 (human PKal)
pIC50: −log10 of the molar value.
So I've got a bunch of molecules here, and I need their pIC50 values.

Solved entries (count: 5):
[ask] Form: Entry = COCc1nn(Cc2ccc3c(c2Cl)CCN(C)C3)cc1C(=O)NCc1c(-n2cc(C)nn2)ccc(OC)c1F | System = Human plasma kallikrein (Homo sapiens (Human), UniProt P03952) | pIC50 = ____
[reply] 7.00 to 7.52

[ask] Form: Entry = COCc1nn(Cc2ccc3c(c2)CCN(C2CC2)C3)cc1C(=O)NCc1c(-n2cnc(C(F)(F)F)n2)ccc(OC)c1F | System = Human plasma kallikrein (Homo sapiens (Human), UniProt P03952) | pIC50 = ____
[reply] 7.00 to 7.52

[ask] Form: Entry = COCc1nn(Cc2ccc3c(c2)CN(C2CCC2)CC3)cc1C(=O)NCc1c(-n2cc(C)nn2)ccc(OC)c1F | System = Human plasma kallikrein (Homo sapiens (Human), UniProt P03952) | pIC50 = ____
[reply] > 8.00

[ask] Form: Entry = COCc1nn(Cc2ccc3c(c2)CN(C)CC3)cc1C(=O)NCc1c(-n2cc(C)nn2)ccc(OC)c1F | System = Human plasma kallikrein (Homo sapiens (Human), UniProt P03952) | pIC50 = ____
[reply] > 8.00

[ask] Form: Entry = COCc1nn(Cc2ccc3c(c2)CCN(C2CC2)C3)cc1C(=O)NCc1c(-n2cc(C)nn2)ccc(OC)c1F | System = Human plasma kallikrein (Homo sapiens (Human), UniProt P03952) | pIC50 = ____
[reply] 7.00 to 7.52

The following molecules each have a reported value; give each one's pIC50.
1. COCc1nn(Cc2cnc3c(c2)CCN(CC(F)F)C3)cc1C(=O)NCc1c(-n2cc(C)nn2)ccc(OC)c1F
2. COCc1nn(Cc2ccc3c(c2)CN(C)CC3)cc1C(=O)NCc1c(-n2cc(C(F)F)nn2)ccc(OC)c1F
3. COc1ccc(-n2cc(C)nn2)c(CNC(=O)c2cn(Cc3ccc4c(c3)CN(C)CC4)c(C)n2)c1F
4. COCc1nn(Cc2ccc3c(c2)C(C)(C)NCC3)cc1C(=O)NCc1c(-n2cc(C)nn2)ccc(OC)c1F
5. COCc1nn(Cc2ccc3c(c2)CN(C)CC3)cc1C(=O)NCc1c(-n2ncnc2C)ccc(OC)c1F
6. COCc1nn(Cc2ccc3c(c2)C(C)(C)N(C)CC3)cc1C(=O)NCc1c(-n2cc(C)nn2)ccc(OC)c1F
7. COCc1nn(Cc2ccc3c(c2)CCN(C)C3)cc1C(=O)NCc1c(-n2cnc(C(F)F)n2)ccc(OC)c1F
8. COCc1nn(Cc2ccc3c(c2)CN(C)CC3)cc1C(=O)NCc1c(-n2ccc(C3CC3)n2)ccc(OC)c1F

[reply]
["7.52 to 8.00", "> 8.00", "7.52 to 8.00", "7.00 to 7.52", "> 8.00", "7.52 to 8.00", "> 8.00", "7.00 to 7.52"]

The following molecules each have a reported value; give each one's pIC50.
1. COCc1nn(Cc2ccc3c(c2)CCN(C)C3)cc1C(=O)NCc1c(-n2cc(C(F)F)nn2)ccc(OC)c1F
2. COCc1nn(Cc2ccc3nc(C)ccc3c2)cc1C(=O)NCc1c(-n2cnnn2)ccc(OC)c1F [RC2, reference compound]

[reply]
["> 8.00", "> 8.00"]
